measuredOn: human Fc (human)
protocolSummary: ELISA; negative control
metric: optical density (OD)

binder	metric	testResult
370_A06 (antibody, V domains shown) VH: EVQLLESGGGLVQPGGSLRLSCAASGFTFSSYSMNWVRQAPGKGLEWVASINYNSGYKSYADSVKGRFTISRDNSKNTLYLQMNSLRAEDTAVYYCARSATWHDTHLDYWGQGTLVTVSS VL: DIQMTQSPSSLSASVGDRVTITCRASQSIVTYLNWYQQKPGKAPKLVIYAATSLASGVPSRFSGSGSGTDFTLTISSLQPEDFATYYCQQSYDLPLTFGGGTKVEIK	optical density	0.331
376_G08 (antibody, V domains shown) VH: EVQLLESGGGLVQPGGSLRLSCAASGFTFDSYGMNWVRQAPGKGLEWVANINYNGGYTSYADSVKGRFTISRDNSKNTLYLQMNSLRAEDTAVYYCARSANWHDTALDYWGQGTLVTVSS VL: DIQMTQSPSSLSASVGDRVTITCRASQSILSYVNWYQQKPGKAPKLVIYAATSRASGVPSRFSGSGSGTDFTLTISSLQPEDFATYYCQQSYDTPLTFGGGTKVEIK	optical density	0.22
376_E03 (antibody, V domains shown) VH: EVQLLESGGGLVQPGGSLRLSCAASGFTFSSYGMNWVRQAPGKGLEWVANINYNGGYTGYADSVKGRFTISRDNSKNTLYLQMNSLRAEDTAVYYCARSANWHDTALDYWGQGTLVTVSS VL: DIQMTQSPSSLSASVGDRVTITCRASQSILSYVNWYQQKPGKAPKLVIYAATSLASGVPSRFSGSGSGTDFTLTISSLQPEDFATYYCQQSYDLPLTFGGGTKVEIK	optical density	0.234
376_B05 (antibody, V domains shown) VH: EVQLLESGGGLVQPGGSLRLSCAASGFTFSSYSMNWVRQAPGKGLEWVANINYNGGYTGYADSVKGRFTISRDNSKNTLYLQMNSLRAEDTAVYYCARSANWHDTALDYWGQGTLVTVSS VL: DIQMTQSPSSLSASVGDRVTITCRASQSIISYVNWYQQKPGKAPKLLIYAATSRASGVPSRFSGSGSGTDFTLTISSLQPEDFATYYCQQSYELPLTFGGGTKVEIK	optical density	0.242
375_D12 (antibody, V domains shown) VH: EVQLLESGGGLVQPGGSLRLSCAASGFTFDSYGMNWVRQAPGKGLEWVSSINYNSGYTSYADSVKGRFTISRDNSKNTLYLQMNSLRAEDTAVYYCARSANWHDTALDYWGQGTLVTVSS VL: DIQMTQSPSSLSASVGDRVTITCRASQSILTYVNWYQQKPGKAPKLVIYAATSRASGVPSRFSGSGSGTDFTLTISSLQPEDFATYYCQQSYETPLTFGGGTKVEIK	optical density	0.193
